# measured_on: Amyloid-beta precursor protein (Homo sapiens) (UniProt P05067)
# Sequence (P05067 whole entry): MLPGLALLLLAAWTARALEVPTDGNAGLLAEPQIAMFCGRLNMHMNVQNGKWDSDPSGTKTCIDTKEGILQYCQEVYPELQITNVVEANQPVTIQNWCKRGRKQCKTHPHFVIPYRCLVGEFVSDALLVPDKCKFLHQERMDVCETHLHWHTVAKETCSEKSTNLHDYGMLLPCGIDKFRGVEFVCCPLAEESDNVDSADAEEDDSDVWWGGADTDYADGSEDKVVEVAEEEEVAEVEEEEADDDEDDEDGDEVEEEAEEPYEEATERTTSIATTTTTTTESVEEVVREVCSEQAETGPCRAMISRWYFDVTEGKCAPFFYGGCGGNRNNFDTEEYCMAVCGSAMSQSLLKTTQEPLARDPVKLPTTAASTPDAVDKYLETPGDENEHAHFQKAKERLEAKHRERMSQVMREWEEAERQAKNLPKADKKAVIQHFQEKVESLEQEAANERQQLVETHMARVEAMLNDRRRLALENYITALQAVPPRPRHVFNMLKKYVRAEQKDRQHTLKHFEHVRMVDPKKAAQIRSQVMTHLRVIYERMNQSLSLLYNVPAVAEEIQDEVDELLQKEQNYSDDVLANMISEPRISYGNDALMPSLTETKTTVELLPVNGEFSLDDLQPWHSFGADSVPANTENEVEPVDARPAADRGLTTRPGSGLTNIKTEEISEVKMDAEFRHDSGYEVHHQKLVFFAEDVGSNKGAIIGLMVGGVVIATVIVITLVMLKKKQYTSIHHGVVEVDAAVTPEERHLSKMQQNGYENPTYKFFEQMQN
# experiment_description: Inhibition of Amyloid beta (25 to 35) (unknown origin) polymerization assessed as reduction in beta-amyloid fibril formation at 10 uM after 6 hrs by UV-visible spectroscopy
measurement_type: inhibition (%)
Give just the numeric value; % need not be written.

inhibition reported for this compound OC[C@H]1O[C@@H](Oc2ccc(/C=C/c3cc(O)c4c(c3)O[C@@H](c3ccc(O[C@@H]5O[C@H](CO)[C@@H](O)[C@H](O)[C@H]5O)cc3)[C@@H]4c3cc(O)cc(O)c3)cc2)[C@H](O)[C@@H](O)[C@@H]1O : 56

inhibition reported for this compound OC[C@H]1O[C@@H](Oc2ccc(/C=C/c3cc(O)c4c(c3)O[C@H](c3ccc(O)cc3)[C@H]4c3cc(O)cc(O)c3)cc2)[C@H](O)[C@@H](O)[C@@H]1O : 54

inhibition reported for this compound OC[C@H]1O[C@@H](Oc2ccc(/C=C/c3cc(O)c4c(c3)O[C@H](c3ccc(O[C@@H]5O[C@H](CO)[C@@H](O)[C@H](O)[C@H]5O)cc3)[C@H]4c3cc(O)cc(O)c3)cc2)[C@H](O)[C@@H](O)[C@@H]1O : 56

inhibition reported for this compound OC[C@H]1O[C@@H](Oc2ccc([C@H]3Oc4cc(/C=C/c5ccc(O)cc5)cc(O)c4[C@@H]3c3cc(O)cc(O)c3)cc2)[C@H](O)[C@@H](O)[C@@H]1O : 58
